Reference source for all entries: paper PMC5221799

System: MCF7/ADR (Dox-resistant) cells
test details: CCK-8 cytotoxicity assay in MCF7/ADR cells
Type: cell-based, human
condition notes: read-out: IC50 of Dox or equivalent NLS-Dox; MCF7/ADR cells, 48 hours, CCK-8, mean ± SD (n=5)
metric: IC50 (µM)
Your answer is read as µM, so omit the unit and give the number.

Could you tell me which IC50 is on file for COc1cccc2c1C(=O)c1c(O)c3c(c(O)c1C2=O)C[C@@](O)(C(=O)CO)C[C@@H]3O[C@H]1C[C@H](N)[C@H](O)[C@H](C)O1 [Free Dox, doxorubicin] ?
49.4

---

System: MCF7/ADR (Dox-resistant) cells
test details: CCK-8 cytotoxicity assay in MCF7/ADR cells
Format: cell-based, human
condition notes: read-out: IC50 of Dox or equivalent NLS-Dox; MCF7/ADR cells, 96 hours, CCK-8, mean ± SD (n=5)
metric: pIC50
Just so you know, pIC50 here is -log10 of the concentration in molar units; reply with that number alone.

Give the measured pIC50 of COc1cccc2c1C(=O)c1c(O)c3c(c(O)c1C2=O)C[C@@](O)(C(=O)CO)C[C@@H]3O[C@H]1C[C@H](N)[C@H](O)[C@H](C)O1 [Free Dox, doxorubicin] .
4.52
